These entries and their values trace back to patent US9567345B2.

# Subject of test: CDK9/Cyclin T1 (Homo sapiens, UniProt P50750)
# Sequence (P50750 whole entry): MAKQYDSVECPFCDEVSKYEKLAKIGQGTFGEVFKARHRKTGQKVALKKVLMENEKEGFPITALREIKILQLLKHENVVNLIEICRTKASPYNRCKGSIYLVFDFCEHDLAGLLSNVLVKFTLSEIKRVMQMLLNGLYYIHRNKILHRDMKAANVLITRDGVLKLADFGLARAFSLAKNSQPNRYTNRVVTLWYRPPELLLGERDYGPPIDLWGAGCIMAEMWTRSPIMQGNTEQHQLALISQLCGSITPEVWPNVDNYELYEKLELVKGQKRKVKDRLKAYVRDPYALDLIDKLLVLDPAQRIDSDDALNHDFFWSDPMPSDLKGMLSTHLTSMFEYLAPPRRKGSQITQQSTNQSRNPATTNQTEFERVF
# Sequence (O60563 whole entry partner): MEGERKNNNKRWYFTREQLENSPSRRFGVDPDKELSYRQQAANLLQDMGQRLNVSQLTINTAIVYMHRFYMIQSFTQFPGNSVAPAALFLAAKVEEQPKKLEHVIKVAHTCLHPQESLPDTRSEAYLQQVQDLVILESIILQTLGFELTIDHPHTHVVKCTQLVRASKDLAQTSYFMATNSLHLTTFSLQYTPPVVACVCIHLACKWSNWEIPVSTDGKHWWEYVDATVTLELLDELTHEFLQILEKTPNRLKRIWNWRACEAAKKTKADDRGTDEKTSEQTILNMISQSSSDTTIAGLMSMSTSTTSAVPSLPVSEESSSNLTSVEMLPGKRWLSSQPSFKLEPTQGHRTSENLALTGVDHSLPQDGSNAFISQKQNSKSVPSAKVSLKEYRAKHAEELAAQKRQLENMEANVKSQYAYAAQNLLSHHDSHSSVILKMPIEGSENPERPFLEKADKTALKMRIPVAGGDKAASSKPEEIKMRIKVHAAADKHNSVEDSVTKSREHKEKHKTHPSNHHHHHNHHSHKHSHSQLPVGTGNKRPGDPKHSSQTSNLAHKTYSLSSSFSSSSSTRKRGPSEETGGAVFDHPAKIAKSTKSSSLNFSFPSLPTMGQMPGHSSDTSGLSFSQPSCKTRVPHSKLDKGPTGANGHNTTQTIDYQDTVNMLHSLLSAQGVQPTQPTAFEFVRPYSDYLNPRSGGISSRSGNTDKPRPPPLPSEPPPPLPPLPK
# Experimental protocol: CDK9 Enzymatic Activity Assay (Lance Kinase Activity Assay, FRET)
# Type: biochemical
# Measurement context: Table 5B, class symbols per IC50 [nM] ranges of b581; read-out: CDK9: Selectivity of CDK7 inhibition over CDK9 inhibition
Measurement label: IC50

CC(C)c1cnn2c(NCc3c(F)cccc3F)nc(OC3CCN(C)CC3)nc12
50 to 500 nM
CC(C)c1cnn2c(NCc3ccccc3-n3cccn3)nc(C(=O)NCC3CCCNC3)nc12 (centres unmarked)
> 2500 nM
CC(C)c1cnn2c(NCc3ccccc3-n3cccn3)nc(OC3COC4(CCNCC4)C3)nc12 (centres unmarked) [(VII-05)]
> 2500 nM

Your task in this section: give IC50 for each listed record.
1. CC(C)c1cnn2c(NCc3ccccc3Oc3ccccn3)nc(O[C@@H]3CCCNC3)nc12
2. CC(C)c1cnn2c(NCc3ccccc3-n3cccn3)nc(N3CCC4(CCCCN4)C3)nc12 (centres unmarked)

Given back:
1. > 2500 nM
2. > 2500 nM

Your task in this section: give IC50 for each listed record.
1. CC(C)c1cnn2c(NCc3ccccc3-n3cccn3)nc(N3CCC4(CCNC4)C3)nc12 (centres unmarked)
2. CC(C)c1cnn2c(NCc3ccccc3-c3cccs3)nc([S+]([O-])C3CCNCC3)nc12 (centres unmarked)
3. CC(C)c1cnn2c(NCc3ccccc3-n3cccn3)nc(OC3CNC3)nc12
4. CNC1CCN(c2nc(NCc3ccccc3-n3cccn3)n3ncc(C(C)C)c3n2)CC1
5. CC(C)c1cnn2c(NCc3ccccc3-n3cccn3)nc(N3CCCC34CCNCC4)nc12
6. CC(C)c1cnn2c(NCc3ccccc3-n3cccn3)nc(NCCN3CCCC3)nc12
7. CC(C)c1cnn2c(NCc3c(F)cccc3-n3cccn3)nc(O[C@@H]3CCCNC3)nc12
8. CC(C)c1cnn2c(N[C@@H](C)c3cccc4ccccc34)nc(OC3CCN(C)CC3)nc12

Given back:
> 2500 nM
50 to 500 nM
> 2500 nM
500 to 2500 nM
> 2500 nM
> 2500 nM
> 2500 nM
> 2500 nM

Your task in this section: give IC50 for each listed record.
1. CC(C)c1cnn2c(NCc3ccccc3-n3cncn3)nc(OC3CCN(C)CC3)nc12
2. CC(C)c1cnn2c(NCc3ccccc3-n3ccnc3)nc(O[C@@H]3CCNC3)nc12
3. CC(C)c1cnn2c(NCc3ccccc3S(=O)(=O)N3CCCC3)nc(O[C@@H]3CCCNC3)nc12
4. CC(C)c1cnn2c(NCc3ccccc3-n3cccn3)nc(N3CCCC4(CCNCC4)C3)nc12

Given back:
["> 2500 nM", "50 to 500 nM", "> 2500 nM", "> 2500 nM"]

====

# Subject of test: CDK7/CycH/Mat1 (Homo sapiens, UniProt P50613)
# Sequence (P50613 whole entry): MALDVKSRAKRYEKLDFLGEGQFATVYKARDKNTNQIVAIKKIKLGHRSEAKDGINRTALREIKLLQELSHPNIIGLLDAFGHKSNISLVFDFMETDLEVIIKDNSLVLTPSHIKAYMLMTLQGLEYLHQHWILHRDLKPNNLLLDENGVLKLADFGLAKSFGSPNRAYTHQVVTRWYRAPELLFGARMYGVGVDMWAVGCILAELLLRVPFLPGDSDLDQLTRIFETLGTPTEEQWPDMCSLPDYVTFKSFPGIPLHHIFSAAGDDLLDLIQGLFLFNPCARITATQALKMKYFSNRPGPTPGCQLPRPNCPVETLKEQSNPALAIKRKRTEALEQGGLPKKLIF
# Experimental protocol: CDK7 Enzymatic Activity Assay (Lance Kinase Activity Assay, FRET)
# Assay type: biochemical
# Measurement context: CDK7/CycH/Mat1, 25 μM ATP final; class ranges; read-out: CDK7: IC50 [nM] for CDK7 inhibition
Measurement label: IC50

CC(C)c1cnn2c(NCc3ccccc3-n3ccnc3)nc(OC3CCN(C)CC3)nc12
< 5 nM
CC(C)c1cnn2c(NCc3ccccc3Cl)nc(OC3CCN(C)CC3)nc12
< 5 nM

Your task in this section: give IC50 for each listed record.
1. CC(C)c1cnn2c(NCc3c(Cl)cccc3Cl)nc(OC3CCN(C)CC3)nc12
2. CC(C)c1cnn2c(NCc3ccccc3-n3cccn3)nc(N3CCCC4(CCNCC4)C3)nc12

Given back:
["10 to 25 nM", "5 to 10 nM"]
